- experimental-target: RSV F protein of subtype A strain A2, on virus (respiratory syncytial virus subtype A …, UniProt P03420 26-574)
- experimental-details: cell-based or functional assay
Assignment: determine reported Neut IC50 (ug/ml) subtype A for the given binders.
Note: state the figure and append the unit.

Observe how each entry below is paired with its result.
binder	Neut IC50 (ug/ml) subtype A
ADI-15651 (antibody, V domains shown, IgG) VH: EVQLVESGPALVKPTQTLTLTCTVSGGVERMSVSWVRQPPGKALEWLARIDWDDDKYYNTFLKTRLTISKGTSKNEVVLTMTNMDPEDTAIYYCARTNRYDKSGYYLYYLDYWGQGTLVTVSS VL: DIQMTQSPSSLSASVGDKVTITCRASQTIASYVNWYQQHPGKAPKLLIYLASRLQSGAPSRFSGSGSGTDFTLTILNLQPEDFATYYCQQSYSSFFTFGPGTKVEIK	1.6 µg/mL
ADI-15583 (antibody, V domains shown, IgG) VH: QVQLVQSGAEVKKPGESLKISCKTSGYKFTNYWIGWVRQMPGKGLEWMGIIYPGDSDARYSPSFQGQVTFSADKSISTAYLQWSSLKASDTAMYYCARQDNSGWADFFPFDYWGQGTLVTVSS VL: ETTLTQSPGTLSLSPGERATLSCRASHSFSSSYLAWYQQKPGQAPRLLIYAASNRATGIPDRFSGSGSGTDFTLTISRLEPEDFAVYFCQQYDSSPWTFGQGTKVEIK	0.443 µg/mL

Task item: Fill in the blank: the reported Neut IC50 (ug/ml) subtype A of ADI-15568 (antibody, V domains shown, IgG) VH: QVQLVESGAEVQKPGASVKISCKASGYKFISYSIHWVRQAPGQGLEWMGVINPGGGLTNYAQKFQDRLTMTRDTSTATVTMELRSLRSDDRAVYFCGREDSYCSGDSCFNSGSGRWVDSWGQGTLVTVSS VL: DIQVTQSPSSLSASVGDRVTITCRASQSVITYLNWYQQKPGKAPQLLVYAASILQSGVPSSFSGSGSGTDFTLTISSLQPEDFATYYCQQTYSTPHTFGQGTKVDIK is ____.
Reply: 0.016 µg/mL
